Target: Alpha glucosidase (Homo sapiens, UniProt O43451+P10253+P14410+Q2M2H8)
Experiment: Inhibition of alpha glucosidase (unknown origin) at 50 uM relative to control
Type: protein assay
Record Criterion met whenever inhibition is at 90% or higher; record Criterion not met when lower.

Recorded results for 6 compounds are shown here.
1. O=C(Sc1nccs1)c1ccc(-c2ccc([N+](=O)[O-])cc2)o1
Criterion not met
2. O=C(Sc1nccs1)c1ccc(-c2ccccc2)o1
Criterion met
3. O=C(Nc1nccs1)c1ccc(-c2ccc(F)cc2)o1
Criterion not met
4. O=C(Sc1nccs1)c1ccc(-c2cccc(Cl)c2)o1
Criterion met
5. O=C(Nc1nccs1)c1ccc(-c2ccc(Br)cc2)o1
Criterion not met
6. O=C(Sc1nccs1)c1ccc(-c2cccc(F)c2)o1
Criterion not met

Is reported inhibition greater than or equal to 90% here: "O=C(Sc1nccs1)c1ccc(-c2ccccc2[N+](=O)[O-])o1"
Criterion met

Is reported inhibition greater than or equal to 90% here: "O=C(Sc1nccs1)c1ccc(-c2ccc(F)cc2F)o1"
Criterion not met

Is reported inhibition greater than or equal to 90% here: "COc1ccc(-c2ccc(C(=O)Sc3nccs3)o2)cc1"
Criterion not met

Is reported inhibition greater than or equal to 90% here: "O=C(Sc1nccs1)c1ccc(-c2ccc(Cl)cc2)o1"
Criterion not met

----------
// reported inhibition at 100 µM per item
Assay: Cytotoxicity against human HEK293 cells assessed as inhibition of cell growth at 100 uM by CCK-8 assay relative to control
Assay type: toxicity, cell-based
Details: read-out: Activity
Answer with a number only, understood to be in %.

1. O=C(Sc1nccs1)c1ccc(-c2ccccc2[N+](=O)[O-])o1
53.4

Let me know recorded inhibition at 100 µM for "O=C(Nc1nccs1)c1ccc(-c2cccc([N+](=O)[O-])c2)o1" , thanks.
28.4
